Hey, just so you know, these numbers are from a melting point compilation (Tetko et al.; mined from patent text by program, amines drawn as free bases though some values may be those of a salt).

For each entry below, report its melting point value.

Q. Returns the measured melting point for the input molecule. Input: CC(=O)N1CCN(c2c(N[C@@H](Cc3ccccc3)C(=O)O)c(=O)c2=O)CC1
A. 155 to 158 °C

Q. Returns the measured melting point for the input molecule. Input: O=C(Nc1ccc(-c2nnn[nH]2)cc1)C(F)(F)C(F)(F)C(F)(F)F
A. 266 to 268 °C

Q. Returns the measured melting point for the input molecule. Input: COc1ncccc1Nc1c(NC(NC(=O)c2cccc(Cl)c2)C(C)(C)C)c(=O)c1=O (stereo not drawn)
A. 208 to 210 °C

====

ENDPOINT NAME: melting point

Q. Returns the measured melting point for the input compound. Input: COC(=O)CCc1cc(C(CC(C)C)NC(=O)Cc2ccc(NC(=O)Nc3ccccc3C)cc2)no1 (stereo not given)
A. 153 to 154 °C

Q. Returns the measured melting point for the input compound. Input: CON(c1ccc([N+](=O)[O-])cc1[N+](=O)[O-])S(=O)(=O)c1ccccc1Cl
A. 112 to 114 °C

Q. Returns the measured melting point for the input compound. Input: Cc1ccc2cc(NC(=O)c3cccc(CCc4cc(Nc5ccccc5)n[nH]4)c3)ccc2n1
A. 98 to 102 °C

Q. Returns the measured melting point for the input compound. Input: COC(=O)c1ccc(-c2nc3ccccc3o2)cc1
A. 190 to 191 °C

Q. Returns the measured melting point for the input compound. Input: CN1COCNC1=N[N+](=O)[O-]
A. 137 to 139 °C

Q. Returns the measured melting point for the input compound. Input: CCC[C@](CCO)(CCc1ccccc1)OCOc1ccc(-c2ccccc2)cc1
A. 49 to 53 °C

Q. Returns the measured melting point for the input compound. Input: O=c1cc(CN2CCCC2)[nH]c(=O)[nH]1
A. 176 to 178 °C

Q. Returns the measured melting point for the input compound. Input: COc1cc(C)c(C=CC(C)=CC=CC(C)=CC(=O)O)c(C)c1
A. 207 to 208 °C

Q. Returns the measured melting point for the input compound. Input: CCCCC(=N)NC(=O)Nc1ccccc1
A. 156 °C

Q. Returns the measured melting point for the input compound. Input: O=C1c2ccccc2CCN1O
A. 95 to 96 °C

Q. Returns the measured melting point for the input compound. Input: CCCCOc1cc(C)c(N=Nc2ccccc2)c(C)c1
A. 47 to 47.5 °C

Q. Returns the measured melting point for the input compound. Input: COC(=O)C(O)CC1CCC(=O)N1 (stereo not given)
A. 87 to 90 °C

Q. Returns the measured melting point for the input compound. Input: C#CCOc1cc(-c2ncnc(C(F)(F)F)c2Cl)c(F)cc1Cl
A. 112 to 113 °C

Q. Returns the measured melting point for the input compound. Input: CC(C)(C)OC(=O)n1c2ccccc2c(=O)n1Cc1cccc(N)c1
A. 155 °C

Q. Returns the measured melting point for the input compound. Input: CC(C)(O)c1ccc(-c2cnc3c(n2)N(CCC2CCOCC2)CC(=O)N3)cc1
A. 210 to 212 °C

Q. Returns the measured melting point for the input compound. Input: Nc1ccc(Cl)cc1S
A. 70 to 72 °C

Q. Returns the measured melting point for the input compound. Input: CC(CCC(O)C(C)(C)O)C1CCC2C3CC=C4CC(O)CCC4(C)C3CCC12C (stereo not given)
A. 195 to 199 °C

Q. Returns the measured melting point for the input compound. Input: CCc1nc(-n2ccnc2)c2ccccc2c1Cl
A. 115 °C

Q. Returns the measured melting point for the input compound. Input: O=C1N(c2c(Cl)cccc2Cl)Cc2cnc(Nc3ccccc3)nc2N1c1cccc(CCO)c1
A. > 250 °C

Q. Returns the measured melting point for the input compound. Input: Cc1nc(NC(=O)c2cnn3c(C4CC4)cc(-c4ccc(Cl)cc4)nc23)sc1S(=O)(=O)NC(C)(C)CO
A. 293 to 294 °C

Q. Returns the measured melting point for the input compound. Input: CCCCCCCCCCCCCCCCCC(=O)NCC(C)(C)NCC(O)c1cc(Cl)c(N)c(Cl)c1 (stereo not given)
A. 74 to 76 °C

Q. Returns the measured melting point for the input compound. Input: COC(=O)c1ccc(Cl)cc1NC(=O)CSc1ccc([N+](=O)[O-])cc1
A. 134 to 137 °C

Q. Returns the measured melting point for the input compound. Input: N#CN=C(Nc1cccnc1)NC1(c2ccccc2)CC=CC1
A. 285 to 288 °C

Q. Returns the measured melting point for the input compound. Input: COc1cc2cc(C#N)c(N)cc2cc1OCc1ccccc1
A. 241 to 243 °C

Q. Returns the measured melting point for the input compound. Input: CC1=Nc2c(nc(N)[nH]c2=O)NC1C (stereo not given)
A. > 300 °C

Q. Returns the measured melting point for the input compound. Input: CCOc1nc(NCc2ccncc2)nc(Nc2ccc3[nH]c(=O)[nH]c3c2)n1
A. 210 to 212 °C

Q. Returns the measured melting point for the input compound. Input: CN(C(=O)Nc1nc(OCC(F)(F)F)cc(OCC(F)(F)F)n1)c1ccc(C(F)(F)F)s1
A. 99 to 101 °C

Q. Returns the measured melting point for the input compound. Input: O=Cc1ccc(-c2ccccc2-c2nnn(C(c3ccccc3)(c3ccccc3)c3ccccc3)n2)cc1
A. 147 to 149 °C

Q. Returns the measured melting point for the input compound. Input: C=C1N(CC)C(=O)OC12CCN(CCC=C(c1ccc(F)cc1)c1ccc(F)cc1)CC2
A. 138 to 139 °C

Q. Returns the measured melting point for the input compound. Input: CCOc1nn(-c2ccc(C(F)(F)F)cn2)cc1CCCOc1cc(CCC(=O)O)n(C)n1
A. 137 to 138 °C

Q. Returns the measured melting point for the input compound. Input: CCOC(=O)C(C)Sc1ncnc2c(O)n(C)nc12 (stereo not given)
A. 127 to 131 °C

Q. Returns the measured melting point for the input compound. Input: N#CCC[C@H]1CC[C@@H](c2ccc(F)cc2)N1S(=O)(=O)c1ccc(Cl)cc1 (racemic)
A. 108 °C

Q. Returns the measured melting point for the input compound. Input: Oc1ccc(-c2cc3ccc(O)cc3s2)cc1
A. 305 to 306 °C

Q. Returns the measured melting point for the input compound. Input: N#CC(=C1CCCN1)c1ccc(-c2ccccc2)cc1
A. 168 to 170 °C

Q. Returns the measured melting point for the input compound. Input: Cc1c(NC(=O)c2ccc(-c3ccc(Cl)s3)cc2F)ccc2cc(CN3CCCC3)cnc12
A. 160 to 162 °C

====

ENDPOINT NAME: melting point

Q. Returns the measured melting point for the input compound. Input: CCOCc1nc2c(N)nc3ccc(OCc4ccccc4)cc3c2n1CCCCNC(=O)N1CCOCC1
A. 150 to 153 °C

Q. Returns the measured melting point for the input compound. Input: COc1cc(Cc2nccc3c(OCc4ccccc4)cc(OCc4ccccc4)cc23)cc(OC)c1OC
A. 158 to 160 °C

Q. Returns the measured melting point for the input compound. Input: CCNc1nc(SC)ncc1C=O
A. 58 to 61 °C

Q. Returns the measured melting point for the input compound. Input: O=C(NCc1ccc(Cl)cc1)c1coc2ccc(C#CCO)cc2c1=O
A. 182 to 183 °C

Q. Returns the measured melting point for the input compound. Input: CCCCOCCOc1ccc(-c2ccc(N3CCCC3)c(C(C)=CC(=O)OCC)c2)cc1
A. 81 to 82 °C

Q. Returns the measured melting point for the input compound. Input: Cc1noc(NS(=O)(=O)c2ccsc2C(N)=O)c1Br
A. 168 to 170 °C

Q. Returns the measured melting point for the input compound. Input: COC(=O)c1ccc(OCCNC(=O)C2Cc3ccccc3N2S(=O)(=O)c2ccc(-c3ccc(F)cc3)cc2)c(C(F)(F)F)c1 (centres undefined)
A. 90 to 95 °C

Q. Returns the measured melting point for the input compound. Input: CN(C(=O)COc1cc(C(F)(F)C(F)(F)F)no1)c1ccccc1
A. 88 to 89 °C

Q. Returns the measured melting point for the input compound. Input: CCCCCCCCC#Cc1ccc(C(=O)O)cc1
A. 103 °C

Q. Returns the measured melting point for the input compound. Input: CNC(=O)CCc1cn(Cc2ccc(C(=O)NS(=O)(=O)c3ccccc3C)cc2OC)c2cc(C(=O)NCC3CCCC3)ccc12
A. 211 to 212 °C

Q. Returns the measured melting point for the input compound. Input: O=C(O)c1ccc(-c2ccc(NS(=O)(=O)C(F)(F)F)cc2)[nH]c1=O
A. > 260 °C

Q. Returns the measured melting point for the input compound. Input: Cc1cc([N+](=O)[O-])c(Cl)nc1C
A. 72 to 76 °C

Q. Returns the measured melting point for the input compound. Input: c1ccc(-c2nc3ccc(Cn4ccnc4)cc3nc2-c2ccccc2)cc1
A. 159 °C

Q. Returns the measured melting point for the input compound. Input: Cn1nc(-c2ccccc2SCc2ccccc2)oc1=O
A. 137 to 140 °C

Q. Returns the measured melting point for the input compound. Input: CCS(=O)(=O)c1cc(C(=O)NCC2CCCN2CC2=CCCCC2)c(OC)cc1N (centres undefined)
A. 192 °C

Q. Returns the measured melting point for the input compound. Input: CCCCc1nc(C(O)C(C)C)c(C(N)=O)n1Cc1ccc(-c2ccccc2C(=O)O)cc1 (centres undefined)
A. > 131 °C

Q. Returns the measured melting point for the input compound. Input: CC(C)(C)OC(=O)N1CCc2cccc([N+](=O)[O-])c2CC1
A. 85 to 88 °C

Q. Returns the measured melting point for the input compound. Input: Clc1ccc2ccc(COc3cccc(CN4CCc5cccc(CCc6nnn[nH]6)c54)c3)nc2c1
A. 137 to 140 °C

Q. Returns the measured melting point for the input compound. Input: COC(=O)[C@H]1C[C@@H](NC(=O)OC(C)(C)C)c2c(Cl)cc(Cl)cc2N1 (relative stereo)
A. 172 to 173 °C

Q. Returns the measured melting point for the input compound. Input: CCCCCCCCCCCCCCCCCC(=O)CO
A. 78 to 80 °C

Q. Returns the measured melting point for the input compound. Input: Clc1cccc(-c2nc3ccccc3n2-c2ccccc2)c1
A. 107 to 109 °C

Q. Returns the measured melting point for the input compound. Input: COc1nc2ccc(Cl)cc2c(-c2ccccc2Cl)c1C(=O)O
A. 188 to 190 °C

Q. Returns the measured melting point for the input compound. Input: CC(C)(C)c1cc(C(=O)Nc2cnc3ccc(Cl)cc3c2-c2ccccc2)cc(C(C)(C)C)c1O
A. 232 to 235 °C

Q. Returns the measured melting point for the input compound. Input: FC(F)(F)c1ccc(Cl)cc1CN1CCNc2ncc(-c3cn[nH]c3)cc21
A. 271 °C

Q. Returns the measured melting point for the input compound. Input: COC(=O)COc1ccc(F)c2c1c1c(n2Cc2ccccc2)CCCC1C(N)=O (centres undefined)
A. 183 to 185 °C

Q. Returns the measured melting point for the input compound. Input: CC(C)c1ccc(C(=O)Cc2c(Cl)cccc2Cl)c(C(C)C)c1OS(N)(=O)=O
A. 203 to 205 °C

Q. Returns the measured melting point for the input compound. Input: COc1ccc(CN2C(=O)C3(COc4cc(F)c(C#N)cc43)c3ccccc32)cc1 (centres undefined)
A. 142 to 143 °C

Q. Returns the measured melting point for the input compound. Input: COc1ccc(-c2nn(Cc3ccccc3)c(=O)cc2-c2ccncc2)cc1
A. 154 to 155 °C

Q. Returns the measured melting point for the input compound. Input: CC1(C)CCC(C)(C)c2cc(-c3cc(-c4ccc(C(=O)O)cc4)ccc3OCCNC3CC3)ccc21
A. 233 °C
